Biological target: HLA-A*0101 (human)
Test: competition with 125I-labelled probe peptide on purified HLA-A*0101
pIC50: −log10 of the molar value.
assay.readout: pIC50

| binder | observed.measurement |
| --- | --- |
| FTDNSSPPA (modifications not checked) […] | 8.00 |

Recorded values, source patent US20060093617A1.
